Target sequence: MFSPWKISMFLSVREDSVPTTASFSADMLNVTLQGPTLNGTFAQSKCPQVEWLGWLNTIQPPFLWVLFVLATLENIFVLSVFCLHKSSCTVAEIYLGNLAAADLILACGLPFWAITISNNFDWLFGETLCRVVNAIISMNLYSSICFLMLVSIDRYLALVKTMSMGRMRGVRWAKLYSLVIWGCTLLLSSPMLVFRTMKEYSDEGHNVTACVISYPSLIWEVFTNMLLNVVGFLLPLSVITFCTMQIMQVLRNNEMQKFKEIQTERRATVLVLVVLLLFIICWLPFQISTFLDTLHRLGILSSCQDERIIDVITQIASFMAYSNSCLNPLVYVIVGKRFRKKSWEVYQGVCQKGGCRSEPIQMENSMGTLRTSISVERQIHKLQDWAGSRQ
Experimental endpoint: Ki (nM)

For orientation, consider the following solved cases.
Cpd smiles | Value unit | Ki
Cc1cc(C)c2cccc(OCc3c(Cl)ccc(S(=O)(=O)NC4(C(=O)N5CC[N+](C)(CCCC[N+](C)(C)C)CC5)CCOCC4)c3Cl)c2n1 | nM | 0.0794
Cc1cc(C)c2cccc(OCc3c(Cl)ccc(S(=O)(=O)NC4(C(=O)N5CCC(CNCCCC[N+](C)(C)C)CC5)CCOCC4)c3Cl)c2n1 | nM | 0.0501
Cc1cc(C)c2cccc(OCc3c(Cl)ccc(S(=O)(=O)NC4(C(=O)N5CC[N+](C)(CCCCC[N+](C)(C)C)CC5)CCOCC4)c3Cl)c2n1 | nM | 0.0501
Cc1cc(C)c2cccc(OCc3c(Cl)ccc(S(=O)(=O)NC4(C(=O)N5CCC(CCCC[N+](C)(C)C)CC5)CCOCC4)c3Cl)c2n1 | nM | 0.631

(I) Cc1cc(C)c2cccc(OCc3c(Cl)ccc(S(=O)(=O)NC4(C(=O)N5CCC(CCC[N+](C)(C)C)CC5)CCOCC4)c3Cl)c2n1
(II) Cc1cc(C)c2cccc(OCc3c(Cl)ccc(S(=O)(=O)NC4(C(=O)N5CC[N+](C)(CCCCCC[N+](C)(C)C)CC5)CCOCC4)c3Cl)c2n1
(III) Cc1cc(C)c2cccc(OCc3c(Cl)ccc(S(=O)(=O)NC4(C(=O)N5CCN(CCC[N+](C)(C)C)CC5)CCOCC4)c3Cl)c2n1
(IV) Cc1cc(C)c2cccc(OCc3c(Cl)ccc(S(=O)(=O)NC4(C(=O)N5CCN(C(=O)[C@@H](N)CCCCNC(=N)N)CC5)CCOCC4)c3Cl)c2n1
(V) Cc1cc(C)c2cccc(OCc3c(Cl)ccc(S(=O)(=O)NC4(C(=O)N5CC[N+]6(CCN(C)CC6)CC5)CCOCC4)c3Cl)c2n1
Exercise: I would appreciate it if you could sort these 5 compounds by Ki, starting from the smallest number. Kindly provide the labels arranged according to the requested ordering.
Solution: II, IV, III, I, V
(II: 0.0398 nM, IV: 0.0631 nM, III: 0.316 nM, I: 0.501 nM, V: 1 nM)
